meta.source: paper PMC8110578

- Test system: KP4 cells
- procedureDetails: Growth assay (crystal violet), KP4 cells
- Assay type: cell-based, human
- protocolConditions: Homo sapiens, KP-4, 72 h, KP4 cells, 72 hours; read-out: IC50
readout: pIC50
Answers are plain numbers, as −log10 of the molar value.

If you can, please state the reported pIC50 value of N=C(N)NC(=N)NCc1ccc(C#Cc2ccccc2)cc1 [1b, 4-(phenylethynyl)benzylbiguanide] .
5.21

* * *

- Test system: red blood cells
- procedureDetails: Hemolytic activity of PEB-biguanidium salts
- Format: cell-based
- protocolConditions: red blood cells 2% v/v in PBS, 1 h at 37 °C
Task for the reader: assign each of the following compounds its reported HC 10% (µM).

Examples with answers:
If you can, please state the reported HC 10% (µM) value of N=C(N)NC(=N)Nc1ccc(C#Cc2ccccc2)cc1 [3a, 4-(phenylethynylphenyl)biguanidium] .
> 179 µM

Okay, and N=C(N)NC(=N)Nc1ccc(C#Cc2ccccc2)cc1 [3b, 4-(phenylethynylphenyl)biguanidium] ?
> 234 µM

Quick one: give me HC 10% (µM) for each item below, same order please.
1. N=C(N)NC(=N)NCc1ccc(CCc2ccccc2)cc1 [2a, 4-(phenylethyl)benzylbiguanide]
2. N=C(N)NC(=N)NCc1ccc(C#Cc2ccccc2)cc1 [1a, 4-(phenylethynyl)benzylbiguanide]

1. > 173 µM
2. > 175 µM

* * *

- procedureDetails: Octanol/water partition (logP) of compound 1b
- Assay type: physicochemical
- protocolConditions: octanol/water, Partition 2 (20 µM), octanol/water, 25°C, 24 hours; read-out: logP
readout: logP at 24 h

If you can, please state the reported logP at 24 h value of N=C(N)NC(=N)NCc1ccc(C#Cc2ccccc2)cc1 [1b, 4-(phenylethynyl)benzylbiguanide] .
0.5

* * *

- procedureDetails: Octanol/water partition (logP) of compound 1b
- Format: physicochemical
- protocolConditions: octanol/water, logP (mean of partitions 1 and 2), 25°C; spread ± 0.10 in its own column
readout: logP at 24 h
One number for each entry.

If you can, please state the reported logP at 24 h value of N=C(N)NC(=N)NCc1ccc(C#Cc2ccccc2)cc1 [1b, 4-(phenylethynyl)benzylbiguanide] .
0.42

* * *

- procedureDetails: Octanol/water partition (logP) of compound 1b
- Type: physicochemical
- protocolConditions: octanol/water, Partition 1 (10 µM), octanol/water, 25°C, 24 hours; read-out: logP
readout: logP at 24 h
Numbers only.

If you can, please state the reported logP at 24 h value of N=C(N)NC(=N)NCc1ccc(C#Cc2ccccc2)cc1 [1b, 4-(phenylethynyl)benzylbiguanide] .
0.35

* * *

- Test system: red blood cells
- procedureDetails: Hemolytic activity of PEB-biguanidium salts
- Assay type: cell-based
- protocolConditions: red blood cells 2% v/v in PBS, 1 h at 37 °C
readout: HC 10% (µM)

Examples with answers:
If you can, please state the reported HC 10% (µM) value of N=C(N)NC(=N)Nc1ccc(CCc2ccccc2)cc1 [4a, 4-(phenylethylphenyl)biguanidium] .
> 178 µM

Okay, and N=C(N)NC(=N)Nc1ccc(CCc2ccccc2)cc1 [4b, 4-(phenylethylphenyl)biguanidium] ?
> 232 µM

Quick one: give me HC 10% (µM) for each item below, same order please.
1. N=C(N)NC(=N)NCc1ccc(CCc2ccccc2)cc1 [2b, 4-(phenylethyl)benzylbiguanide]
2. N=C(N)NC(=N)NCc1ccc(C#Cc2ccccc2)cc1 [1c, 4-(phenylethynyl)benzylbiguanide]

> 225 µM
> 305 µM

* * *

Task for the reader: assign each of the following compounds its reported HC 10% (µM).
- Tested on: red blood cells
- procedureDetails: Hemolytic activity of PEB-biguanidium salts
- Assay type: cell-based
- protocolConditions: red blood cells 2% v/v in PBS, 1 h at 37 °C

Examples with answers:
If you can, please state the reported HC 10% (µM) value of N=C(N)NC(=N)NCc1ccc(C#Cc2ccccc2)cc1 [1b, 4-(phenylethynyl)benzylbiguanide] .
> 227 µM

Okay, and N=C(N)NC(=N)Nc1ccc(CCc2ccccc2)cc1 [4c, 4-(phenylethylphenyl)biguanidium] ?
> 315 µM

Okay, and N=C(N)NC(=N)Nc1ccc(C#Cc2ccccc2)cc1 [3c, 4-(phenylethynylphenyl)biguanidium] ?
> 319 µM

Now consider a different compound.
If you can, please state the reported HC 10% (µM) value of N=C(N)NC(=N)NCc1ccc(CCc2ccccc2)cc1 [2c, 4-(phenylethyl)benzylbiguanide] .
151 µM

* * *

- procedureDetails: Octanol/water partition (logP) of compound 1b
- Assay type: physicochemical
- protocolConditions: octanol/water; read-out: logP
readout: logP at 24 h
Numbers only.

If you can, please state the reported logP at 24 h value of N=C(N)NC(=N)NCc1ccc(C#Cc2ccccc2)cc1 [1b, 4-(phenylethynyl)benzylbiguanide] .
0.4
